# TARGET_ENTITY: δ opioid receptor (UniProt P41143)
# EXPERIMENT: radioligand binding
Non-standard residues stand in square brackets, D forms with d. No end group written: not given here. Phe(3-Ph) = N[C@@H](Cc1cccc(-c2ccccc2)c1)C(=O)O; Phe(2-Ph) = N[C@@H](Cc1ccccc1-c1ccccc1)C(=O)O; Bip = N[C@@H](Cc1ccc(-c2ccccc2)cc1)C(=O)O; Dmt = Cc1cc(O)cc(C)c1C[C@H](N)C(=O)O
REPORTED_ENDPOINT: IC50 (µM)

[Dmt][dR][Phe(3-Ph)]G-NH2 (N-terminus assumed; SMILES Cc1cc(O)cc(C)c1C[C@H](N)C(=O)N[C@H](CCCNC(=N)N)C(=O)N[C@@H](Cc1cccc(-c2ccccc2)c1)C(=O)NCC(N)=O) [Dmt-D-Arg-Phe(3-phenyl)-Gly-NH2]; 0.269
[Dmt][dA][Phe(2-Ph)]G-NH2 (N-terminus assumed; SMILES Cc1cc(O)cc(C)c1C[C@H](N)C(=O)N[C@H](C)C(=O)N[C@@H](Cc1ccccc1-c1ccccc1)C(=O)NCC(N)=O) [Dmt-D-Ala-Phe(2-phenyl)-Gly-NH2]; 0.0198
[Dmt][dR][Phe(2-Ph)]G-NH2 (N-terminus assumed; SMILES Cc1cc(O)cc(C)c1C[C@H](N)C(=O)N[C@H](CCCNC(=N)N)C(=O)N[C@@H](Cc1ccccc1-c1ccccc1)C(=O)NCC(N)=O) [Dmt-D-Arg-Phe(2-phenyl)-Gly-NH2]; 0.0203
[Dmt][dR][Bip]G-NH2 (N-terminus assumed; SMILES Cc1cc(O)cc(C)c1C[C@H](N)C(=O)N[C@H](CCCNC(=N)N)C(=O)N[C@@H](Cc1ccc(-c2ccccc2)cc1)C(=O)NCC(N)=O) [Dmt-D-Arg-Phe(4-phenyl)-Gly-NH2]; 0.0423

// provenance: paper PMC6005765
